# target.or.test.system: CDK4-CYCLIN D1 (Homo sapiens)
# Sequence (P11802 whole entry): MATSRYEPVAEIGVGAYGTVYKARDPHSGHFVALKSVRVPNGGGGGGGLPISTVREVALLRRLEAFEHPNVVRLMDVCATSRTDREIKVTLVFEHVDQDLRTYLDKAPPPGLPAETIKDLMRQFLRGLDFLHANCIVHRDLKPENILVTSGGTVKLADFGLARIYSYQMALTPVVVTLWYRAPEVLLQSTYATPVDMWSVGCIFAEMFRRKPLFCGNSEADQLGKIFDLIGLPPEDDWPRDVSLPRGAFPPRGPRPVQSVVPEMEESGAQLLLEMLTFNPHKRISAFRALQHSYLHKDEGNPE
# Sequence (P24385 whole entry partner): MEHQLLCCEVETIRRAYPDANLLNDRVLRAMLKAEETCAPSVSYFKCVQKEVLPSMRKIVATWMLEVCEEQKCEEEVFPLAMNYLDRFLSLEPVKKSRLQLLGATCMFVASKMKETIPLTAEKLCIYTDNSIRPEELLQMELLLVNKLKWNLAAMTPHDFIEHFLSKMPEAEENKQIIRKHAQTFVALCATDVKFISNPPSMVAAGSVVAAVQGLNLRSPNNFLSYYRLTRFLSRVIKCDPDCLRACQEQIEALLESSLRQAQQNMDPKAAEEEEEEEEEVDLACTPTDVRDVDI
# assay.method.text: CDK protein kinase inhibition by ADP-Glo assay, CDK4-CYCLIN D1
# Type: biochemical
# details: Table 36; fold selectivity for CDK2 over CDK4, recombinant CDK kinases
measured.metric: CDK2 Fold selectivity against CDK4

Here is how some compounds turned out for CDK2 Fold selectivity against CDK4.
C[C@H]1CC(F)(F)COc2cc(ccn2)Nc2cc(n[nH]2)[C@H]2CC[C@H](C2)OC(=O)N1 [Compound 223]; C (C, >50 and ≤100)
C[C@H]1CCCOc2cc(ccn2)Nc2cc(n[nH]2)[C@@H]2C[C@H](F)[C@@H](C2)OC(=O)N1 [Compound 225]; E (E, <20)
C[C@H]1CCCOc2cc(ccn2)Nc2cc(n[nH]2)[C@H]2C[C@@H](F)[C@H](C2)OC(=O)N1 [Compound 224]; C (C, >50 and ≤100)
[2H]C1([2H])Oc2cc(ccn2)Nc2[nH]nc(c2F)[C@H]2CC[C@H](C2)OC(=O)N[C@H]2C[C@H]1C2 [Compound 221]; C (C, >50 and ≤100)
[2H]C1([2H])Oc2cc(ccn2)Nc2cc(n[nH]2)[C@H]2CC[C@H](C2)OC(=O)N[C@H]2C[C@H]1C2 [Compound 177]; E (E, <20)

Query block: For the compound O=C1N[C@H]2C[C@H](COc3cc(ccn3)Nc3cc(n[nH]3)[C@H]3CC[C@H](C3)O1)C2 [Compound 108] , report CDK2 Fold selectivity against CDK4.
Result block: E (E, <20)

====

Form field: IC50 (one value per entry).
# target.or.test.system: CDK2-CYCLIN E1 (Homo sapiens)
# assay.method.text: CDK protein kinase inhibition by ADP-Glo assay, CDK2-CYCLIN E1
# Assay type: biochemical
# details: ADP-Glo, 1000 μM ATP; Table 15; read-out: CDK2-CYCLINE, IC50
# Protocol: CDK Protein Kinase Inhibition by ADP-Glo Assay This ADP-Glo assay measures ADP formed from a kinase reaction and indirectly quantifies the phosphorylation of peptide substrates by the CDK/cyclin protein complexes. […] At the end of the incubation, the reaction is quenched, and conversion is detected by luminescence using the Promega ADP-Glo™ Kinase Assay kit (catalog #V9102). […]

C[C@H]1OCCCNC(=O)O[C@@H]2CC[C@@H](C2)c2cc([nH]n2)Nc2ccnc1c2; ≤ 10 nM

Turning now to a further compound:
Query block: For the compound O=C1NC23CC(C/C=C/c4cncc(c4)Nc4cc(n[nH]4)[C@H]4CC[C@H](C4)O1)(C2)C3 , report IC50.
Result block: ≤ 10 nM

====

# target.or.test.system: CDK1-CYCLIN B (Homo sapiens, UniProt P06493)
# Sequence (P06493 whole entry): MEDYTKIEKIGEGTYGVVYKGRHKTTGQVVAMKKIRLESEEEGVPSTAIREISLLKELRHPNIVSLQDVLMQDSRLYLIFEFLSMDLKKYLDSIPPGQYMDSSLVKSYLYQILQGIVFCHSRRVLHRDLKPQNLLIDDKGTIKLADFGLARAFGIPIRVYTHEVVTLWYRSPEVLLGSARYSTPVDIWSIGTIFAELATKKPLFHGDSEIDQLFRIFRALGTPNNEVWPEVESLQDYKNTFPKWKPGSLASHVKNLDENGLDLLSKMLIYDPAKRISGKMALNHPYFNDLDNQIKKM
# Sequence (P14635 whole entry partner): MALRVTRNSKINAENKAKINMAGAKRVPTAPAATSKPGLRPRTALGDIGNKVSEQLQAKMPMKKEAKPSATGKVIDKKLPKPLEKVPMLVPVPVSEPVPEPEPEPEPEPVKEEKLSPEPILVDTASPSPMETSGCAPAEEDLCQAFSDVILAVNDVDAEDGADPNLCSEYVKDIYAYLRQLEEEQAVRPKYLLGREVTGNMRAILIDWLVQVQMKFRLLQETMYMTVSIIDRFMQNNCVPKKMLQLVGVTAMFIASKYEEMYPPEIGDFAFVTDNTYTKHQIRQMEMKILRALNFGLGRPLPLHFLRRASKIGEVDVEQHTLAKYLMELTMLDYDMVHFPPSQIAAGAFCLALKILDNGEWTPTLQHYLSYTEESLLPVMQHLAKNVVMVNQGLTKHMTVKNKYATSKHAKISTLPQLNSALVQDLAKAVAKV
# assay.method.text: CDK protein kinase inhibition by ADP-Glo assay, CDK1-CYCLIN B
# Assay type: biochemical
# details: Table 35; recombinant CDK kinase; read-out: CDK1-CYCLINB, IC50
# Protocol: CDK Protein Kinase Inhibition by ADP-Glo Assay This ADP-Glo assay measures ADP formed from a kinase reaction and indirectly quantifies the phosphorylation of peptide substrates by the CDK/cyclin protein complexes. […] At the end of the incubation, the reaction is quenched, and conversion is detected by luminescence using the Promega ADP-Glo™ Kinase Assay kit (catalog #V9102). […]
pIC50: −log10 of the molar value.
Form field: pIC50 (one value per entry).

Here is how some molecules turned out for pIC50.
C[C@H]1CCCOc2cc(ccn2)Nc2cc(n[nH]2)[C@@H]2C[C@H](F)[C@@H](C2)OC(=O)N1 [Compound 225]; ≥ 8.00
[2H]C1([2H])Oc2cc(ccn2)Nc2[nH]nc(c2F)[C@H]2CC[C@H](C2)OC(=O)N[C@H]2C[C@H]1C2 [Compound 221]; 7.00 to 7.30
O=C1N[C@H]2C[C@H](COc3cc(ccn3)Nc3cc(n[nH]3)[C@H]3CC[C@H](C3)O1)C2 [Compound 108]; 7.30 to 8.00
C[C@H]1CCCOc2cc(ccn2)Nc2cc(n[nH]2)[C@H]2C[C@@H](F)[C@H](C2)OC(=O)N1 [Compound 224]; 7.30 to 8.00
[2H]C1([2H])Oc2cc(ccn2)Nc2cc(n[nH]2)[C@H]2CC[C@H](C2)OC(=O)N[C@H]2C[C@H]1C2 [Compound 177]; 7.30 to 8.00

Turning now to a further molecule:
Query block: For the molecule C[C@H]1CC(F)(F)COc2cc(ccn2)Nc2cc(n[nH]2)[C@H]2CC[C@H](C2)OC(=O)N1 [Compound 223] , report pIC50.
Result block: 7.00 to 7.30
